What phosphorylation enrichment was measured for each of the following?
# target under test: EPHB2 (UniProt P29323)
# Sequence (P29323 whole entry, looked up): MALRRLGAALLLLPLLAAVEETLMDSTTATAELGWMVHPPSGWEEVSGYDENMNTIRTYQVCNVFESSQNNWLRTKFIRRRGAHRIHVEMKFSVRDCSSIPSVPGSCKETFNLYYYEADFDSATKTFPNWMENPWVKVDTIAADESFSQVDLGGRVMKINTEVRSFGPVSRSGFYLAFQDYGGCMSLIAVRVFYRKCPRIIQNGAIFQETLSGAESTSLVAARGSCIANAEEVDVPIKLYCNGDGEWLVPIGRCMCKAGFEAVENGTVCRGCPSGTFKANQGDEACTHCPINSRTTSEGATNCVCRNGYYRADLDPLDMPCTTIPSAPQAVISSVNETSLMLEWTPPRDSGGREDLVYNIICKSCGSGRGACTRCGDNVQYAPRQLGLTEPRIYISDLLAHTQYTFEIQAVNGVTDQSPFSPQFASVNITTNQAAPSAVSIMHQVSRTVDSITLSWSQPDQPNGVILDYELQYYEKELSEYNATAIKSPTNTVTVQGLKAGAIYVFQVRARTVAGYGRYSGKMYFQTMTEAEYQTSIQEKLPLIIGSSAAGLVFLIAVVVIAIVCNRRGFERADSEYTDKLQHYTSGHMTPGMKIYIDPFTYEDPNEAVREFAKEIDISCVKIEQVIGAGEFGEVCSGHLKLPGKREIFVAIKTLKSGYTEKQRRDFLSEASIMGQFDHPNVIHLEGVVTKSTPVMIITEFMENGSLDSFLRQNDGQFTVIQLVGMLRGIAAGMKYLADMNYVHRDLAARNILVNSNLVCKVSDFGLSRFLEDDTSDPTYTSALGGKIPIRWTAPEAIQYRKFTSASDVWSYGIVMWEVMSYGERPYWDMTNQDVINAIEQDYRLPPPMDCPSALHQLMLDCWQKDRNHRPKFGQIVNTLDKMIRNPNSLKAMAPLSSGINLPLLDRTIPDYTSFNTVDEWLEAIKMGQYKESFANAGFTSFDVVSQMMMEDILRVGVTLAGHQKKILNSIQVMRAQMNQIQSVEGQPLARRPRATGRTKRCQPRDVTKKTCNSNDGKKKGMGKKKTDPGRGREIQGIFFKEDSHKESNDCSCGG
# assay text: phosphorylation enrichment, bacterial display (enrichment ratio); higher = better substrate or ligand; peptides without Tyr show the background;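 also: 11-residue human phosphosite peptides and single-mutation variants displayed on the E. coli surface, counted by deep sequencing, each peptide's frequency after selection divided by its frequency in the unselected input library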;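 also: frequency after pTyr selection over input frequency; kinase dosed for 20-30% of maximal phosphorylation in three min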
One number for each entry.

Could you share what phosphorylation enrichment was measured for NYSKMYCNPDA [KNL1_Y489_A486S] , tested on EPHB2 (UniProt P29323)?
0.45

Query phosphorylation enrichment on EPHB2 (UniProt P29323) for GGQVFYNSEFG [FLT4_Y1333_YF]
0.617

Enter reported phosphorylation enrichment observed with EPHB2 (UniProt P29323) for RPDSPYSRPHD [DOK2_Y271]
0.49

Missing value: phosphorylation enrichment, EPHB2 (UniProt P29323), entry RSAGKYDVFFI [MECP2_Y120_L124F_YF] . Fill in?
0.773

Please provide the recorded phosphorylation enrichment for GGQVFHNSEYG [FLT4_Y1333_Y1333H] , tested on EPHB2 (UniProt P29323).
0.431

Tell me reported phosphorylation enrichment for KMGNIYRTEFG [MRPL3_Y265_YF] , tested with EPHB2 (UniProt P29323).
0.34

Dear colleague, could you please provide phosphorylation enrichment for the sequences listed below?
1. VASMFYTLVIP [OR8K3_Y277_I275M]
2. DHPSEYAARQL [ANXA13_Y90_R86H]
3. GREAEYSEKHG [EPHB4_Y574_D576E]
4. NELTYYCYKKD [CD59_Y87_C89Y]
5. SVETPYVSVTF [NDRG2_Y47_G48V]

1: 0.82; 2: 0.494; 3: 0.487; 4: 0.826; 5: 0.629

Field: phosphorylation enrichment. Fill in for each record below.
1. MEFAKYGSLRG [RET_Y809_V804M_YF]
2. PVGVLYEVKVF [PTS_Y128_K129E_YF]

1. 0.629
2. 0.91
